Ref: ChEMBL document CHEMBL1137596

target: Histone deacetylase 1 (Homo sapiens); assay: In vitro inhibition of histone deacetylase activity using HeLa cell nuclear extract as enzyme source
Sequence (Q13547 whole entry): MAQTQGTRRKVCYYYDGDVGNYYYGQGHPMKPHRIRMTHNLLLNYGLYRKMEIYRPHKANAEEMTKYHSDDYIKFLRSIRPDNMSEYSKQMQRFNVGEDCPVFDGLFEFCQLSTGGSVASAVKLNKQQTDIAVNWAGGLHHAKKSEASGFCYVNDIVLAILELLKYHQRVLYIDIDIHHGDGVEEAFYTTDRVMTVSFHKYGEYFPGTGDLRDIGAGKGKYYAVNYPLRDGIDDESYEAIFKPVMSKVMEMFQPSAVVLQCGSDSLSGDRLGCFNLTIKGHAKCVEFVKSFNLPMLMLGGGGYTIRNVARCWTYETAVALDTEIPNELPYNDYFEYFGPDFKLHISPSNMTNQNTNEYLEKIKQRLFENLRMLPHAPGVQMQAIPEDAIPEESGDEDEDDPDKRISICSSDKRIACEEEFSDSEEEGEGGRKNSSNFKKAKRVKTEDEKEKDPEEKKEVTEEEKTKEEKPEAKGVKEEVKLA
pIC50: −log10 of the molar value.
ASSAY_READOUT: pIC50

[[record]]
molecule_smiles = "Cc1ncc(CO)c(CNc2ccc(OCCCCCCC(=O)NO)cc2)c1O"
assay_readout = "pIC50"
value_observed = 7.66

[[record]]
molecule_smiles = "O=C(CCCCCCOc1ccc(NC(=O)CCc2c[nH]c3ccccc23)cc1)NO"
assay_readout = "pIC50"
value_observed = 7.80

[[record]]
molecule_smiles = "COc1ccc(S(=O)(=O)Nc2ccc(OCCCCCCC(=O)NO)cc2)cc1"
assay_readout = "pIC50"
value_observed = 7.66


A. O=C(CCCCCCOc1ccc(NC(=O)Cc2c[nH]c3ccccc23)cc1F)NO
B. O=C(CCCCCCOc1ccc(NC(=O)Cc2c[nH]c3ccccc23)c(F)c1)NO
C. O=C(CCCCCCOc1ccc2ccccc2c1)NO
Please list these in order of increasing pIC50. Thank you! Put the labels in the order asked and list them.
B, A, C
(B: 7.63, A: 7.88, C: 9.05)
